test: Cytotoxicity against human THP1 cells infected with intracellular amastigote stage of Leishmania donovani MHOM/ET/67/HU3; type: cell-based, THP-1
parameter.measured: CC50 (µM)
One number for each entry, in µM.

Reference set, count: 4
> print(dat)
                  compound.structure.string  recorded.number
1  FC(F)(F)Oc1ccc(-c2ccc(CN3C4=NCCN4c4ccccc43)cc2)cc1               11
2  Cc1ccc(-c2ccc(CN3C4=NCCN4c4ccccc43)cc2)cc1             27.1
3  COc1ccc(-c2ccc(CN3C4=NCCN4c4ccccc43)cc2)cc1               23
4  FC(F)(F)c1ccc(-c2ccc(CN3C4=NCCN4c4ccccc43)cc2)cc1               30

Now take the following molecule into account.
Please report the recorded CC50 for "Clc1ccc(-c2ccc(CN3C4=NCCN4c4ccccc43)cc2)cc1" .
20
